Target: T1, human EphA6 (Homo sapiens, UniProt Q9UF33)
T1 construct: a protein of the extracellular region of each human Eph receptor fused with the SEAP protein and the His tag; made in house; host or cells: Expi293F cells (culture supernatant)
T1 sequence (Q9UF33 23-550 limits assumed): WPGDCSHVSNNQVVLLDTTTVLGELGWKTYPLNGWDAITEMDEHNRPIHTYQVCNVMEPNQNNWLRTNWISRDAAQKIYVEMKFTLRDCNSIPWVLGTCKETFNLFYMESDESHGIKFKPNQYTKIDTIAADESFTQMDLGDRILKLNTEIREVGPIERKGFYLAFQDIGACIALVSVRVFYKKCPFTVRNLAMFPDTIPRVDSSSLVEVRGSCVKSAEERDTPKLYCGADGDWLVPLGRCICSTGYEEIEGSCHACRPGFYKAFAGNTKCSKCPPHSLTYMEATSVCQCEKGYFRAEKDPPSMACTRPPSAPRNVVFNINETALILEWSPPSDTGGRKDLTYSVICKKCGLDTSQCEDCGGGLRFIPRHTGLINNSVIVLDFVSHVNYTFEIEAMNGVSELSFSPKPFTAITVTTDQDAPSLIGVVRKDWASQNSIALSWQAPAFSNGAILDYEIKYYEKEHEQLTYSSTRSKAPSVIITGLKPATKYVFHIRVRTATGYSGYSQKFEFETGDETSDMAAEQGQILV
Assay: Selectivity ELISA of humanized antibodies for human Eph receptor
Type: binding
Settings: coated protein 1 nM
measured_quantity: hEphA6-SEAP-: absorbance at 450 nm, percentage with respect to hEphA4-SEAP-His as 100% (%)
Kindly provide the numeric value in % only, without the unit symbol.

get_value(item= 140 (antibody, V domains shown, synthetic humanized antibody heavy chain variable region sequence; synthetic humanized antibody light chain variable region sequence) VH: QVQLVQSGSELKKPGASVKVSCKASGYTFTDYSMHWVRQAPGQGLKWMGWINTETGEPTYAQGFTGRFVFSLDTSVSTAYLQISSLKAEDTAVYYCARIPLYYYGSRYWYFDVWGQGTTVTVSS VL: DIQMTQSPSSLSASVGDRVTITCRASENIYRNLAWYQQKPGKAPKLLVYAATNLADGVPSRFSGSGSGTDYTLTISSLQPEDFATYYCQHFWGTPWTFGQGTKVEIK , readout=hEphA6-SEAP-: absorbance at 450 nm, percentage with respect to hEphA4-SEAP-His as 100%) returns 10.8
